experiment: Quantitative High-Throughput drug screen in 47 multiple myeloma cell lines against the NCATS MIPE library collection: LP1_DSMZ cell viability assay (AID 1918982); settings: LP1 myeloma viability, CellTiter-Glo ATP luminescence, 48 h; series mostly up to 45.8 µM; further: nearly all actives have a fitted effect of over 35% in size
Results filed as inconclusive are left out. Calls of active or inactive are those of the source. The call rests on the fitted dose curve; in most records, active means well fitted cell-killing curve with a large enough effect; inconclusive means small, poorly fitted or top-dose-only effect, or effect the other way; inactive means no such curve, though single readings can be large or run the other way.
Write down one outcome, taken from Y (active), N (inactive)

Molecule	Cat
COC[C@H](NC(=O)c1cnc(C)s1)C(=O)N[C@@H](COC)C(=O)N[C@@H](Cc1ccccc1)C(=O)[C@@]1(C)CO1	Y
CCCCCCCCCCCCc1ccc(S(=O)(=O)Nc2nncs2)cc1	N
C=C(C)[C@@H]1CC[C@]2(C(=O)O)CC[C@]3(C)[C@H](CC[C@@H]4[C@@]5(C)CC[C@H](O)C(C)(C)[C@@H]5CC[C@]43C)[C@@H]12	N
O=C(Nc1ccc(Oc2ccnc3[nH]ccc23)c(F)c1)c1cccn(-c2ccc(F)cc2)c1=O	N
COc1cc(O)c2c(c1)C1OC1C[C@H](O)[C@H](O)C(=O)C=CC[C@H](C)OC2=O (stereo not given in full)	Y
Cc1cc(O)c2c(c1)C(=O)c1cccc(O)c1C2=O	N
CC(C)(O)[C@H]1CC[C@@](C)([C@H]2[C@@H](O)C[C@@]3(C)[C@@H]4C[C@H](O[C@@H]5O[C@H](CO)[C@@H](O)[C@H](O)[C@@H]5O)[C@H]5C(C)(C)[C@@H](O[C@@H]6OC[C@@H](O)[C@H](O)[C@@H]6O)CC[C@@]56C[C@@]46CC[C@]23C)O1	N
CC[C@H]1OC(=O)[C@H](C)[C@@H](O[C@H]2C[C@@](C)(OC)[C@@H](O)[C@H](C)O2)[C@H](C)[C@@H](O[C@@H]2O[C@H](C)C[C@H](N(C)C)[C@@H]2O)[C@](C)(OC)C[C@@H](C)C(=O)[C@H](C)[C@@H](O)[C@]1(C)O	N
COc1cccc2c1C(=O)c1c(O)c3c(c(O)c1C2=O)C[C@@](O)(C(C)=O)C[C@H]3O[C@H]1C[C@H](N)[C@H](O)[C@H](C)O1	Y
CCC(C(=O)O)C1CCC(C)C(C(C)C(O)C(C)C(=O)C(CC)C2OC3(C=CC(O)[C@@]4(CC[C@](C)(C5CC[C@@](O)(CC)C(C)O5)O4)O3)C(C)CC2C)O1 (stereo not given in full)	Y

Now consider the entry below.
QUERY: Recorded test outcome, item CC(C=CC(=O)NO)=C[C@@H](C)C(=O)c1ccc(N(C)C)cc1
RESULT: Y

----------
assay: Quantitative High-Throughput drug screen in 47 multiple myeloma cell lines against the NCATS MIPE library collection: XG1_PLB cell viability assay (AID 1919866); conditions: CellTiter-Glo ATP, 48 h; series mostly up to 45.8 µM; further: nearly all actives have a fitted effect of over 35% in size
Results filed as inconclusive are left out. Calls of active or inactive are those of the source. Calls come from the whole dose curve; as a rule, active = well fitted cell-killing curve with a large enough effect; inconclusive = small, poorly fitted or top-dose-only effect, or effect the other way; inactive = no such curve, though single readings can be large or run the other way. Positions of bridges follow the written chain, without caps; N, C: chain ends. Non-standard residues stand in square brackets, D forms with d. Residues, ends and D or L forms follow the SMILES beside them. ξ: configuration not given here. *: point of attachment. Octanoyl(6-Me) = CCC(C)CCCCC(=O)*; ξThr(3R) = C[C@@H](O)C(N)C(=O)O; dDab = NCC[C@@H](N)C(=O)O; Dab = NCC[C@H](N)C(=O)O; Nva = CCC[C@H](N)C(=O)O; Cbz = O=C(OCc1ccccc1)*
Write down one outcome, taken from 1 (active), -1 (inactive)

Molecule	Cat
COc1cc2ncnc(Nc3cccc(Br)c3)c2cc1OC	1
CC(=O)N[C@@H]1[C@H](O[C@@H]2c3ccc(c(Cl)c3)Oc3cc4cc(c3O[C@H]3O[C@H](CO)[C@@H](O)[C@H](O)[C@H]3NC(=O)CCCCCCCC(C)C)Oc3ccc(cc3Cl)C[C@H]3NC(=O)[C@H](N)c5ccc(O)c(c5)Oc5cc(O)cc(c5)[C@H](NC3=O)C(=O)N[C@H]4C(=O)N[C@H]3C(=O)N[C@@H]2C(=O)N[C@@H](C(=O)O)c2cc(O)cc(O[C@H]4O[C@H](CO)[C@@H](O)[C@H](O)[C@H]4O)c2-c2cc3ccc2O)O[C@H](CO)[C@@H](O)[C@@H]1O	-1
Cc1ncc(-c2ccnc(Nc3ccc(S(C)(=O)=O)cc3)n2)n1C(C)C	1
CC(=O)OCC(=O)[C@@]12N=C(C)O[C@H]1C[C@H]1[C@@H]3CCC4=CC(=O)C=C[C@]4(C)[C@@H]3[C@@H](O)C[C@@]12C	1
CO[C@@H]1[C@@H](O)[C@H](O)[C@@H](n2c3c(Cl)cccc3c3c4c(c5c6cccc(Cl)c6[nH]c5c32)C(=O)NC4=O)O[C@@H]1CO	1
CCc1c(O)cc(O)c(C(=O)c2ccc(OCCN3CCOCC3)c(OC)c2)c1CC(=O)N(CCOC)CCOC	1
Cn1cc(C[C@@H](N)C(=O)O)c2ccccc21	-1
Cc1[nH]c(C=C2C(=O)Nc3ccccc32)c(C)c1CCC(=O)O	1
CCc1cnn2c(NCc3ccc[n+]([O-])c3)cc(N3CCCC[C@@H]3CCO)nc12	1
CC(=O)[C@]1(O)Cc2c(O)c3c(c(O)c2[C@@H](O[C@H]2C[C@H](N)[C@@H](O)[C@H](C)O2)C1)C(=O)c1ccccc1C3=O	1

QUERY: Recorded test outcome, item CCC[C@@H](C=O)NC(=O)[C@H](CC(C)C)NC(=O)[C@H](CC(C)C)NC(=O)OCc1ccccc1 (Cbz-Leu-Leu-[Nva]-aldehyde)
RESULT: 1

QUERY: Recorded test outcome, item C=CC(=O)N1CCc2ccc(-n3c(=O)ccc4cnc5ccc(-c6cnn(C)c6)cc5c43)cc21
RESULT: 1

QUERY: Recorded test outcome, item CN(CC(=O)N(Cc1ccc(C2CCCCC2)cc1)c1ccc(C(=O)O)c(O)c1)S(=O)(=O)c1c(F)c(F)c(F)c(F)c1F
RESULT: 1

QUERY: Recorded test outcome, item CC[C@H](CC[C@@H](C)[C@H]1CC[C@H]2[C@@H]3CC=C4C[C@@H](O)CC[C@]4(C)[C@@H]3CC[C@]12C)C(C)C
RESULT: -1

QUERY: Recorded test outcome, item CCC(C)CCCCC(=O)N[C@@H](CCN)C(=O)NC(C(=O)N[C@H](CCN)C(=O)N[C@@H]1CCNC(=O)C([C@@H](C)O)NC(=O)[C@@H](CCN)NC(=O)[C@@H](CCN)NC(=O)[C@@H](CC(C)C)NC(=O)[C@H](Cc2ccccc2)NC(=O)[C@H](CCN)NC1=O)[C@@H](C)O (stereo partly drawn) ({Octanoyl(6-Me)}-[Dab][ξThr(3R)][dDab][dDab][Dab]F[dL][dDab][dDab][ξThr(3R)]; lactam 4-C)
RESULT: -1

QUERY: Recorded test outcome, item C[C@H]1O[C@H](O[C@H]2[C@H](O)[C@@H](O)[C@@H](O[C@H]3[C@H](O)[C@@H](O)C(O)O[C@H]3CO)O[C@H]2CO)[C@H](O)[C@@H](O)[C@H]1N[C@H]1C=C(CO)[C@@H](O)[C@H](O)[C@@H]1O (stereo partly drawn)
RESULT: -1

QUERY: Recorded test outcome, item O=C(NCc1ccccc1)[C@H](Cc1ccccc1)NC(=O)[C@@H]1O[C@@H]1C(=O)NCCc1ccc(O)cc1
RESULT: 1

QUERY: Recorded test outcome, item CCN(CC)Cc1ccc2cc(COC(=O)Nc3ccc(C(=O)NO)cc3)ccc2c1
RESULT: 1

QUERY: Recorded test outcome, item CN(C)CC(=O)N1CCC(c2ccc(NC(=O)c3ncc(C#N)[nH]3)c(C3=CCCCC3)c2)CC1
RESULT: 1

QUERY: Recorded test outcome, item CCNC(=O)c1cc2c(-c3cc(OCCN4CCCC4)c(Cl)cc3Cl)nc(N)nc2s1
RESULT: 1

QUERY: Recorded test outcome, item COc1ccc(S(=O)(=O)Nc2cccnc2Nc2ccc(O)cc2)cc1
RESULT: 1

QUERY: Recorded test outcome, item COC(=O)C=CC(=O)OC
RESULT: 1

QUERY: Recorded test outcome, item OC[C@H]1OC(O)C[C@@H](O)[C@H]1O (stereo partly drawn)
RESULT: -1

QUERY: Recorded test outcome, item CC(C)(C)c1nc2c3cc[nH]c(=O)c3c3cc(F)ccc3c2[nH]1
RESULT: 1

QUERY: Recorded test outcome, item COc1cc2c(Nc3ccc(Cl)c(Cl)c3F)ncnc2cc1OCC1C[C@@H]2CN(C)C[C@H]2C1
RESULT: 1

QUERY: Recorded test outcome, item CS[C@H]1SC[C@@H]2C(=O)N(C)[C@H](C(C)C)C(=O)OC[C@H](NC(=O)c3cnc4ccccc4n3)C(=O)N[C@H](C)C(=O)N(C)[C@@H]1C(=O)N(C)[C@H](C(C)C)C(=O)OC[C@H](NC(=O)c1cnc3ccccc3n1)C(=O)N[C@H](C)C(=O)N2C
RESULT: 1

QUERY: Recorded test outcome, item O=[N+]([O-])c1cn2c(n1)OC[C@@H](OCc1ccc(OC(F)(F)F)cc1)C2
RESULT: -1

QUERY: Recorded test outcome, item FC(F)(F)c1ccc(Nc2nc3ccc(Oc4ccnc(-c5ncc(C(F)(F)F)[nH]5)c4)cc3[nH]2)cc1
RESULT: 1
